B1: Unconventional myosin-Ie, residues 1051 to 1108; numbered along this chain, Q12965 (parent)
chain: PQVPQCKALYAYDAQDTDELSFNANDIIDIIKEDPSGWWTGRLRGKQGLFPNNYVTKI

- Variants of: B1
- Experiment notes: abundance fitness (aPCA) (normalised: wild type 0, dead -1); higher = more abundant; growth selection in yeast, the domain comes from the species named
- Experimental conditions: Homo sapiens
Quick rule: abundance fitness of at least -0.5 means 1.0, below that means 0.0.

Changes	Class
D29I	1.0
D13V	1.0
I27S	0.0
V55P	0.0
L9P	0.0
N23A	1.0
A11T	1.0
T40F	1.0
Q15F	1.0
C6V	1.0
A8I	0.0
Y10E	1.0
F50K	0.0
Q47D	1.0
S21T	1.0
G37V	0.0
L20W	0.0
P51D	1.0
Q5P	0.0
D16H	1.0
R44G	1.0
I27R	1.0
